Recorded pIC50 for the following compounds
ASSAY TARGET: human orexin-2 receptor (Homo sapiens (Human), UniProt O43614)
Sequence (O43614 whole entry): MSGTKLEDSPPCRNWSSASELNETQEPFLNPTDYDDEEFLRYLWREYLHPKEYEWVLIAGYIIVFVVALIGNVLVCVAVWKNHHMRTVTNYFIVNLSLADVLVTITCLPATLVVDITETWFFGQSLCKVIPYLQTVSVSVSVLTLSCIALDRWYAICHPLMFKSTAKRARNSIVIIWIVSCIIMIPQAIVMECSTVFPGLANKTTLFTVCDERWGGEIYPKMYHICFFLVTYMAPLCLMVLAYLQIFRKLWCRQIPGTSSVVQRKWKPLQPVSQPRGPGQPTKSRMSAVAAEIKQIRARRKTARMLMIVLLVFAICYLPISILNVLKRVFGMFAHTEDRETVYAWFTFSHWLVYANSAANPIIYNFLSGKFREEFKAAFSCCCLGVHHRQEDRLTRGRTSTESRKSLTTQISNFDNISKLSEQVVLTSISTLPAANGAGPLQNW
ASSAY PROCEDURE: hOX2R FLIPR Ca2+ flux assay
SETTINGS: CHO cells expressing human orexin-2 receptor; agonist 70 pM Ala-6,12 orexin-A
pIC50: −log10 of the molar value.
READOUT: pIC50

- SMILES CODE: "CCOc1ccccc1C(=O)N1CCCC[C@@H]1Cc1nc(C(C)(C)O)c(C)o1"
  OBSERVED MEASUREMENT: 7.55
- SMILES CODE: "Cc1oc(C[C@H]2CCCCN2C(=O)c2ncccc2-n2nccn2)nc1C(C)(C)O"
  OBSERVED MEASUREMENT: 6.65
- SMILES CODE: "Cc1oc(C[C@H]2CCCCN2C(=O)c2cccnc2OC(C)C)nc1C(C)(C)O"
  OBSERVED MEASUREMENT: 7.44
- SMILES CODE: "Cc1oc(C[C@H]2CCCCN2C(=O)c2ccccc2C2CCC2)nc1C(C)(C)O"
  OBSERVED MEASUREMENT: 6.94
